- MEASUREMENT TARGET: UniProt:Q9BQF6
- Sequence (Q9BQF6 whole entry): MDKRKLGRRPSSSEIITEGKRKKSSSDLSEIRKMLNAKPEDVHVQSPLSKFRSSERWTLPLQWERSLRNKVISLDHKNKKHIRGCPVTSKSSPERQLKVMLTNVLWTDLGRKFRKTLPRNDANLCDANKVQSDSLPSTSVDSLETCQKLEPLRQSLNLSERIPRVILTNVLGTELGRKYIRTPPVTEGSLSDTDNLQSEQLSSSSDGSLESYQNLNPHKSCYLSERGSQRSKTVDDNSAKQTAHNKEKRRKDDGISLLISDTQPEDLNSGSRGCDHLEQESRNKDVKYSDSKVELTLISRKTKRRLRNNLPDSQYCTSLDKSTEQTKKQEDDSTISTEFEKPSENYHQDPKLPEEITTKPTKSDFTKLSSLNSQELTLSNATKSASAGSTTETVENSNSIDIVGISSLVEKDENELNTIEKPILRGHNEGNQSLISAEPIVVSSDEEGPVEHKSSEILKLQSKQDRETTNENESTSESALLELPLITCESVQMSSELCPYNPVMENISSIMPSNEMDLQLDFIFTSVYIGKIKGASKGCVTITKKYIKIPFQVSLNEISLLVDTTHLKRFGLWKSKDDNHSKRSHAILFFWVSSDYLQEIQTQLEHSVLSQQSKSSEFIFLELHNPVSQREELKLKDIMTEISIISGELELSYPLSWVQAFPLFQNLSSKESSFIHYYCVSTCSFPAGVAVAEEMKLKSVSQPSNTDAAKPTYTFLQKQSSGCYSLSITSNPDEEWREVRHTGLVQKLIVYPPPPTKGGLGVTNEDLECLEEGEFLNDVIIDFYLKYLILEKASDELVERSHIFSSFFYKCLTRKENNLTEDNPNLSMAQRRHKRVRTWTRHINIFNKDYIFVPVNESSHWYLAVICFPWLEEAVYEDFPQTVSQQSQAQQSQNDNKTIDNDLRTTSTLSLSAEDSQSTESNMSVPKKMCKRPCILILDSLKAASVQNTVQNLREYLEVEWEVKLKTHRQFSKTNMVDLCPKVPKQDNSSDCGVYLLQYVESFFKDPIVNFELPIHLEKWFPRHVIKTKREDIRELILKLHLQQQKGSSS
- Assay type: functional
Calls of active or inactive are those of the source.
READOUT KIND: IC50

>>> observed_result("COc1ccc(-c2cc3ccc(OC)cc3cn2)cc1")
"1.69 µM (active)"
>>> observed_result("O=C1/C(=C\\c2ccc(O)c(O)c2)SC(=S)N1Cc1ccccc1")
"13 µM (active)"
>>> observed_result("CCC(COC)Oc1cc(NCc2ccccc2)c2ncn(C(C)C)c2c1 (stereo unspecified)")
"5.61 µM (active)"
>>> observed_result("CCCOc1ccc(C(=O)Nc2ccc(Cl)cn2)cc1")
"3.22 µM (active)"
>>> observed_result("O=c1[nH]c(N2CCOCC2)cc2ccccc12")
"1.96 µM (active)"

Problem: Consider the compound O=C1c2ccccc2C(=O)C12OC2c1cccc2ccccc12 (stereo unspecified) . State its measured IC50.
Solution: 2.86 µM (active)

---

- ASSAY METHOD TEXT: alpha-synuclein stem-loop luciferase translation blockers – H4 neuroglioma cells, luminescence, confirmation (AID 1988)
- Format: functional, cell-based
Calls of active or inactive are those of the source.
READOUT KIND: EC50

Problem: Read the entry `Cc1cc(C(=O)N/N=C/c2cc(Br)cc(Br)c2OC(=O)c2cccc(F)c2)[nH]n1` and write its reported EC50.
Solution: 7.49 µM (active)

Problem: Input `CCOc1ccccc1NC(=O)c1nc(S(=O)(=O)Cc2cccc(C)c2)ncc1Cl` , output reported EC50.
Solution: 8.12 µM (active)

Problem: In one line, give reported EC50 of the entry `COc1ccc(CCN=C(NS(=O)(=O)c2ccc(Cl)cc2)c2ccccc2)cc1` .
Solution: > 120 µM (not active)

Problem: Query EC50 for `O=C(N/N=C(\c1ccccc1)c1ccccn1)c1ccccc1Cl`
Solution: 0.472 µM (active)

Problem: Using known records, supply EC50 for Cn1c(Cl)cnc1C1CC(=O)c2cc(Cl)ccc2O1 (stereo not given)
Solution: > 120 µM (not active)

---

- MEASUREMENT TARGET: High affinity choline transporter 1 (Homo sapiens)
- Sequence (Q9GZV3 whole entry): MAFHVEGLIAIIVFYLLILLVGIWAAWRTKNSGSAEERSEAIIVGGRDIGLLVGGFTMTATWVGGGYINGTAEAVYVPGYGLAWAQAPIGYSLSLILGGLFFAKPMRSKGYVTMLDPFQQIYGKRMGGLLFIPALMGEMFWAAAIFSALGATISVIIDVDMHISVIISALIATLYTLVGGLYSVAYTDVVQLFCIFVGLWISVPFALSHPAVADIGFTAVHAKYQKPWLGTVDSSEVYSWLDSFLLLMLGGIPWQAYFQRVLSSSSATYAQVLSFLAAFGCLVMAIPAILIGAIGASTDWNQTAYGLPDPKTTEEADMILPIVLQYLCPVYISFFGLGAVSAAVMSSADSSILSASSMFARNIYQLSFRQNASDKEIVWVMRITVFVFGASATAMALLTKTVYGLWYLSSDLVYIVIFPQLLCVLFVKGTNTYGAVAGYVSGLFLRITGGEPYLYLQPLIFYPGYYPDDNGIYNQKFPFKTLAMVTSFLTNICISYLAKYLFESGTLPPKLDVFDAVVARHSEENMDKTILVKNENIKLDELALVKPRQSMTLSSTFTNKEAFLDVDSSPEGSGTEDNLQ
- ASSAY METHOD TEXT: human choline transporter blockers, potency – cell-based, 5-point CRC, membrane potential dye, dose response (AID 504840)
- Format: functional
Calls of active or inactive are those of the source.
Reported IC50 values are given for each entry in this list.

Examples from the recorded data:
>>> observed_result("NS(=O)(=O)c1ccc(CCNCc2ccccc2OCc2ccc(Cl)cc2)cc1")
"11.2 µM (active)"
>>> observed_result("CCC(NCCc1ccccc1)=C1C(=O)N(C)C(=O)N(C)C1=O")
"13.8 µM (active)"
>>> observed_result("O=C(Nc1nnc(C(F)(F)F)s1)C1COc2ccccc2O1 (centres undefined)")
"1.55 µM (active)"

Problem: Dear colleague, please send me the reported IC50 for `CC(C)OC(=O)c1cccc(-c2ccc(C=O)o2)c1` when you can.
Solution: 14.5 µM (active)

---

Each record here notes measured AC50.
- MEASUREMENT TARGET: Paired box protein Pax-8 (Homo sapiens, UniProt Q06710)
- Sequence (Q06710 whole entry): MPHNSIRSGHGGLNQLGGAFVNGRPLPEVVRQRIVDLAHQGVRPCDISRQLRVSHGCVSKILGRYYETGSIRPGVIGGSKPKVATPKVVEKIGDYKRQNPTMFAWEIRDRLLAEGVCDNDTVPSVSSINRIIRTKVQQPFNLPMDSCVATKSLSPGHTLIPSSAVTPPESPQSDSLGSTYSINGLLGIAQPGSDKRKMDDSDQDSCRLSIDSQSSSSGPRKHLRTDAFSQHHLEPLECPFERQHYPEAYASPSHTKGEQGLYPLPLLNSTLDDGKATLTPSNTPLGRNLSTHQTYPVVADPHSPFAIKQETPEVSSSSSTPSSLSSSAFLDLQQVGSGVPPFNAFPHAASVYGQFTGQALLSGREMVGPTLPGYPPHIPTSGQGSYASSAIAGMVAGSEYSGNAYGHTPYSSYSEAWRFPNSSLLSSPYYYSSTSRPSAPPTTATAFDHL
- ASSAY METHOD TEXT: PAX8 transcriptional activity inhibition in RMG-I – RMG-I cells, luciferase, cherry-pick, dose response (AID 687027);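 also: luciferase reporter driven by Pax8 target thyroperoxidase promoter measured by SteadyGlo luminescence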
- Format: functional, cell-based
Activity calls are given as the source filed them.

Please review the entries below; each comes with its answer.
>>> observed_result("C[C@@H]1CN([C@H](C)CO)C(=O)c2cc(NC(=O)Nc3ccc(F)cc3)ccc2O[C@@H](C)CCCCO[C@H]1CN(C)C(=O)NC1CCCCC1")
"6.55 µM (active)"
>>> observed_result("C[C@H]1CCCCO[C@H](CN(C)Cc2ccc(C(F)(F)F)cc2)[C@@H](C)CN([C@@H](C)CO)C(=O)c2cc(NS(=O)(=O)c3ccc(Cl)cc3)ccc2O1")
"4.73 µM (active)"
>>> observed_result("COc1ccccc1NC(=O)c1nc(S(=O)(=O)Cc2ccccc2)ncc1Cl")
"8.83 µM (active)"
>>> observed_result("CCOc1ccccc1NC(=O)c1nc(S(=O)(=O)Cc2cccc(C)c2)ncc1Cl")
"7.71 µM (active)"

Consider now this further molecule.
Problem: Write down AC50 measured for item `CC(C)C(=O)N1CCN(c2ccc(NC(=O)c3ccc([N+](=O)[O-])o3)cc2)CC1`
Solution: 4.48 µM (active)

---

- ASSAY METHOD TEXT: Luminescence Cell-Based Dose Retest to Confirm Inhibitors of Cancer Stem Cells. [Related pubchem assays (depositor defined):AID2717, AID2721]
- Type: functional
- SETTINGS: Homo sapiens
The source made the active and inactive calls.
READOUT KIND: AC50

Sample answers from the record:
>>> observed_result("CCCCCCOc1ccc(OC(=O)c2ccncc2)cc1")
"3.67 µM (active)"
>>> observed_result("CC(=O)OCCCNc1cc(Sc2ccc(Cl)cc2)c2nonc2c1[N+](=O)[O-]")
"4.57 µM (active)"
>>> observed_result("CCn1c2ccccc2c2cc(NC(=O)c3cccc([N+](=O)[O-])c3)ccc21")
"1.62 µM (active)"

Problem: Give the value of AC50 reported for the following: `COc1ccc(-c2[nH]ncc2N=Nc2ccccc2)cc1`
Solution: 3.81 µM (active)

Problem: Give the measured AC50 for `Cc1ccnc(NC(=O)CSc2cc(=O)n(C)c3ccccc23)c1`
Solution: 1.03 µM (active)

---

// reported AC50 per item
- MEASUREMENT TARGET: Cytochrome P450 1A2 (Homo sapiens, UniProt P05177);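 also: PubChem cytochrome P450 panel assay, CYP1A2 panel member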
- Sequence (P05177 whole entry): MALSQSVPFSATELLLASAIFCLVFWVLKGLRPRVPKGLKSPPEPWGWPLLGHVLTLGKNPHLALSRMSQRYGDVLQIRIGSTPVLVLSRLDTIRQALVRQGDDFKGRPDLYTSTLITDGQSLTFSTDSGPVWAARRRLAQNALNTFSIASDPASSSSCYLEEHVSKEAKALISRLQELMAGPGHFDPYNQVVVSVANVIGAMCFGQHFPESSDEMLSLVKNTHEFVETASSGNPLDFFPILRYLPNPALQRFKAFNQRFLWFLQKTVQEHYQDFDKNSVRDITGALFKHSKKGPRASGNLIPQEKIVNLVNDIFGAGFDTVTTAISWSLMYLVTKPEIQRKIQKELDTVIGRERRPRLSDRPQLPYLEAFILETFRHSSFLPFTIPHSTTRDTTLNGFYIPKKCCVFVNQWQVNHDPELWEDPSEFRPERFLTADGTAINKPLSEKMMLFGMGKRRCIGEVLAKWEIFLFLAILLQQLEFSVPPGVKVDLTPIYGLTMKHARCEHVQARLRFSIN

Worked examples, 5 compounds total:
>>> observed_result("COC(=O)Cn1c(C(=O)N2CCCC2)cc2c1C[C@H]1CN(C(=O)c3ccccc3)[C@@](Cc3ccc(F)cc3)(C(=O)OC)[C@@H]21")
"15.8 µM (inconclusive)"
>>> observed_result("Cc1ccc(C)c(NC(=S)N(CCc2nc3cc(C)c(C)cc3[nH]2)Cc2cccnc2)c1")
"4.47 µM (inconclusive)"
>>> observed_result("O=C(c1cc(C(F)(F)F)cc(C(F)(F)F)c1)N1CCC[C@@]2(CCN(c3ccccn3)C2)C1")
"25.1 µM (inconclusive)"
>>> observed_result("Cc1cc(C(=O)N/N=C/c2cccc(OC(=O)c3ccco3)c2)[nH]n1")
"22.4 µM (inconclusive)"
>>> observed_result("CCCCC(=O)Nc1cc(OCC)c(NC(=O)c2ccccc2[N+](=O)[O-])cc1OCC")
"14.1 µM (inconclusive)"

Problem: Give AC50 for `CN(C)C(=O)c1ccc(-c2cncnc2NC2CCNCC2)cc1`
Solution: 25.1 µM (inconclusive)

Problem: Please report the measured AC50 for `N#Cc1cccc(NC(=O)N2CCCC3(CCN(C(=O)c4cccc(F)c4)CC3)C2)c1`
Solution: 12.6 µM (inconclusive)

Problem: Please report the measured AC50 for `O=C(NCCNS(=O)(=O)c1ccc(Cl)cc1)c1cc(OCC(F)(F)F)ccc1OCC(F)(F)F`
Solution: 2.82 µM (inconclusive)

Problem: Supply AC50 value. Item: `CSc1cc(C)nc(NC(C)=O)n1`
Solution: 1.26 µM (inconclusive)

Problem: Return value of AC50 for input CCCCSC(=S)N(C)C1CCS(=O)(=O)C1 (stereo not given) , no commentary.
Solution: 25.1 µM (inconclusive)

---

- MEASUREMENT TARGET: Cytochrome P450 2C19 (Homo sapiens, UniProt P33261)
- Sequence (P33261 whole entry): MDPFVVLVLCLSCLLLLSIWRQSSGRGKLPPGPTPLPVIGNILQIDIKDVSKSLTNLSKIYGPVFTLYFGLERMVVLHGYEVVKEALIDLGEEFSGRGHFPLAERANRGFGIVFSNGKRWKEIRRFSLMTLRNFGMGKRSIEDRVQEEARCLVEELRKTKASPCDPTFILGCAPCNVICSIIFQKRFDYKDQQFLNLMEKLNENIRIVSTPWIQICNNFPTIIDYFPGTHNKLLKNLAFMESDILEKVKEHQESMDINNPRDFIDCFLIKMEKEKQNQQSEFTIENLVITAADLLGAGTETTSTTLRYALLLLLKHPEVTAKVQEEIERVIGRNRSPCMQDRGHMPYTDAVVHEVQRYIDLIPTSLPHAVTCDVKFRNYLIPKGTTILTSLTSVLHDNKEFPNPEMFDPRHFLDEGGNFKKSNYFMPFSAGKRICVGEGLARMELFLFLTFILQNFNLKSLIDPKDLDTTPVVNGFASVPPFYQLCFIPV
- ASSAY METHOD TEXT: Cytochrome panel assay with activity outcomes. Panel member name: p450-cyp2c19 Compounds with AC50 equal or less than 10 uM are considered active
- Type: functional
- SETTINGS: read-out: AC50
READOUT KIND: AC50

>>> observed_result("O=C1N=C(N2CCOCC2)S/C1=C/c1cccs1")
"25.1 µM (inconclusive)"

Problem: Fill in reported AC50 for this entry: `Cc1ccc(C)c(NC(=S)N(CCc2nc3cc(C)c(C)cc3[nH]2)Cc2cccnc2)c1`
Solution: 2 µM (inconclusive)

Problem: Please look at this molecule and report its AC50: `C/C(=N\NC(=O)c1cccc(C)c1)c1cccc(NC(=O)c2ccco2)c1`
Solution: 39.8 µM (inconclusive)

Problem: Write down AC50 measured for item `COC(=O)c1c(C)ccc2c(O)c3c(cc12)C(=O)c1c2c(cc(O)c1C3=O)[C@@]1(C)O[C@@](C)(O2)[C@@H](O)[C@H](N(C)C)[C@H]1O`
Solution: 3.98 µM (inconclusive)

Problem: Please list AC50 recorded for the molecule `O=C(CCn1nc(-c2ccc(Cl)cc2)c2ccccc2c1=O)NCCN1CCOCC1`
Solution: 28.2 µM (inconclusive)

Problem: Give reported AC50 value for `COc1ccc(OC)c(N(CC(=O)N2CCc3ccccc3C2)S(C)(=O)=O)c1`
Solution: 11.2 µM (inconclusive)

Problem: For the molecule `O=C(c1ccc2c(c1)N(Cc1ccccc1)C(=O)CS2)N1CCOCC1` , give its reported AC50.
Solution: 28.2 µM (inconclusive)

Problem: Tell me its AC50 given `O=C(c1ccncc1)N1CCC2(CC1)CCN(c1ccccn1)CC2` as the entry.
Solution: 1 µM (inconclusive)

Problem: Give the reported AC50 for this molecule. `Cc1[nH]c2c(C)cccc2c1CCNC(=O)c1ccc2c(c1[N+](=O)[O-])C(=O)c1ccccc1C2=O`
Solution: 0.398 µM (inconclusive)
